# assay explanation: p53 small molecule agonists, cell-based qHTS assay: qHTS cell viability counter screen (AID 1963581); further: on the % scale 0 is the no-effect control and ±100 the full control effect; nearly all actives have a fitted effect of over 45% in size
# experimental setup: p53RE-bla HCT-116 viability, ATP luminescence, 16 h; series mostly up to 66 µM
Results filed as inconclusive are left out. Active and inactive are the calls of the source. The call rests on the fitted dose curve.
metric: activity change, negative = cytotoxicity

# compound, measured value
records = [
    ("OCC(F)(F)F", "inactive"),
    ("CO[C@@H]1[C@H](OC(=O)/C=C/C=C/C=C/C=C/C(=O)O)CC[C@]2(CO2)[C@H]1[C@@]1(C)O[C@@H]1CC=C(C)C", "inactive"),
    ("CCOc1cc(OCC)c(C(=O)CCC(=O)O)cc1OCC", "inactive"),
    ("CC(C)(C)NCC(O)c1cc(O)cc(O)c1 (configuration not stated)", "inactive"),
]

# map each compound to its activity change, negative = cytotoxicity
1. OCCN1CN(CCO)CN(CCO)C1
2. CC(C)C/C=C(\C=O)c1ccccc1
3. CC(O)CN(CCCN(C)C)CCCN(C)C (configuration not stated)
4. CC(COC(C)(C)C)OCCCO (configuration not stated)
5. CC(C)(C)C(=O)C(=O)O
6. C#CCN[C@@H]1CCc2ccccc21
7. O=C(O)C(=O)Cc1c[nH]c2ccccc12

**A:**
1: inactive; 2: inactive; 3: inactive; 4: inactive; 5: inactive; 6: inactive; 7: inactive

====

# assay system: D(2) dopamine receptor (Homo sapiens) (UniProt P14416)
# Sequence (P14416 whole entry, looked up): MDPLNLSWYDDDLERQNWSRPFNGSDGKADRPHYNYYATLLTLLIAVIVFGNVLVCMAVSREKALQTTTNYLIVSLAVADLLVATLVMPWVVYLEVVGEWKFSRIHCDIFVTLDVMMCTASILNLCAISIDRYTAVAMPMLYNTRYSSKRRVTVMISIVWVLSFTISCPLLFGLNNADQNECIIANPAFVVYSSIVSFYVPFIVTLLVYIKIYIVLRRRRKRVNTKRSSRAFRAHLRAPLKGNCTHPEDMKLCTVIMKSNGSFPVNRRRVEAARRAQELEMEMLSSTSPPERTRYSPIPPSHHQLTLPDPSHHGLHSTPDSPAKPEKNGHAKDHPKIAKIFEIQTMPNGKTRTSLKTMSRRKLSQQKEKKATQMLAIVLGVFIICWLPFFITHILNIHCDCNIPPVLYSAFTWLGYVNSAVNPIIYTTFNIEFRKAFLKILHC
# assay explanation: Dopamine D2 receptor (DRD2) small molecule antagonists, cell-based qHTS assay (AID 1963595); further: on the % scale 0 is the no-effect control and ±100 the full control effect
# experimental setup: HEK293-DRD2 cAMP HTRF antagonist mode; series mostly up to 92.4 µM
# Procedure: National Center for Advancing Translational Sciences [NCATS] Division of Preclinical Innovation [DPI] U.S. Environmental Protection Agency [EPA] National Institutes of Environmental Health Sciences [NIEHS] National Toxicology Program [NTP] […] DRD2-Hek293 cells were dispensed at 600 cells/3uL/well in 1536-well white plates using a Multidrop Dispenser. […] The fluorescence intensity in the plates was measured at 340 nm excitation and 665 & 620 nm emission by an Envision plate reader.
Inconclusive results are not listed. Activity calls are given as the source filed them. Calls come from the whole dose curve; as a rule, active = well fitted inhibition curve with a large enough effect in the signal ratio in the repeat runs, with a control signal flat; inconclusive = weak or mixed curves, or effect the other way; inactive = flat fitted curve, though single readings scatter; the % refers to the signal ratio.
metric: activity change, negative = inhibition

The examples below pair each entry with its known result.
# molecule, assay system, activity change, negative = inhibition
records = [
    ("CCCCC(CC)COC(=O)CC#N (centres undefined)", "D(2) dopamine receptor (Homo sapiens) (UniProt P14416)", "inactive"),
    ("c1ccc(CNCCNCc2ccccc2)cc1", "D(2) dopamine receptor (Homo sapiens) (UniProt P14416)", "inactive"),
    ("CC(C)CC(=O)C1C(=O)c2ccccc2C1=O", "D(2) dopamine receptor (Homo sapiens) (UniProt P14416)", "inactive"),
    ("CCCCCCCCCC#N", "D(2) dopamine receptor (Homo sapiens) (UniProt P14416)", "inactive"),
    ("CCOC(CN1CCN(CC(C)C(=O)c2ccccc2)CC1)c1ccccc1 (centres undefined)", "D(2) dopamine receptor (Homo sapiens) (UniProt P14416)", "9.08% [at 18.9 µM] (inactive)"),
    ("O=C(O)c1ccccc1C(=O)Nc1ccc(S(=O)(=O)Nc2nccs2)cc1", "D(2) dopamine receptor (Homo sapiens) (UniProt P14416)", "inactive"),
    ("O=C1O[C@@H]2[C@@H](O)[C@H](O)O[C@@H]2[C@H]1O", "D(2) dopamine receptor (Homo sapiens) (UniProt P14416)", "inactive"),
    ("O=C(O)CNCC(=O)O", "D(2) dopamine receptor (Homo sapiens) (UniProt P14416)", "-7.14% [at 8.38 µM] (inactive)"),
]

Parameters: items (list). Returns: activity change, negative = inhibition for each item.
1. NC(CO)C(=O)NNCc1ccc(O)c(O)c1O (centres undefined)
2. COc1ccc(OC)c(OC)c1
3. COc1ccc(OC)c(NC(=O)CC(C)=O)c1
4. CCOC(=O)/C=C/C(=O)O

**A:**
inactive
inactive
inactive
inactive

Okay, here is my list. What is activity change, negative = inhibition for each of these?
1. CC(=O)NCCCCCC(=O)O
2. O=C(Nc1cccc(C2=NCCN2)c1)Nc1cccc(C2=NCCN2)c1

**A:**
1: inactive; 2: -4.58% [at 18.9 µM] (inactive)

====

# assay system: Beta-2 adrenergic receptor (Homo sapiens) (UniProt P07550)
# Sequence (P07550 whole entry, looked up): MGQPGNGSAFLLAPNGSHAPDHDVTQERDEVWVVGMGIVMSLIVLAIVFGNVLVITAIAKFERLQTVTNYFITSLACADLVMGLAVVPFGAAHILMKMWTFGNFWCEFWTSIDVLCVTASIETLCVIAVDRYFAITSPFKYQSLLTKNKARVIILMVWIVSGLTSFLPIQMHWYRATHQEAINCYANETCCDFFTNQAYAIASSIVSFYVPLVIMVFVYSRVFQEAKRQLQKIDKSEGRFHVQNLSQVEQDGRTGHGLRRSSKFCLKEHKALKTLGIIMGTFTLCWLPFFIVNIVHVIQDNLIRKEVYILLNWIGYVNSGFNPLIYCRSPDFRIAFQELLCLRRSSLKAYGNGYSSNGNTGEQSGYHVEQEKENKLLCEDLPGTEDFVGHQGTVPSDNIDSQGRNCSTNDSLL
# assay explanation: Adrenergic beta2 receptor (ADRB2) small molecule antagonists, cell-based qHTS assay (AID 1963592); further: on the % scale 0 is the no-effect control and ±100 the full control effect; nearly all actives have a fitted effect of over 50% in size
# experimental setup: CHO-ADRB2 cells, isoproterenol-stimulated cAMP HTRF ratio, 0.5 h; series mostly up to 92.4 µM
Records with an inconclusive call do not appear. Activity calls are given as the source filed them. Calls follow the shape of the full dose curve.

# line notation, activity change, negative = inhibition
data = [
    ("COC(=O)CCCCCCCCC(=O)OC", "inactive"),
    ("C#C[C@]1(OC(C)=O)CC[C@H]2[C@@H]3CCC4=C[C@@H](OC(C)=O)CC[C@@H]4[C@H]3CC[C@@]21C", "inactive"),
    ("C[C@H]1O[C@H](O[C@H]2[C@H](O)[C@@H](O)[C@@H](O[C@H]3[C@H](O)[C@@H](O)[C@H](O)O[C@@H]3CO)O[C@@H]2CO)[C@H](O)[C@@H](O)[C@@H]1N[C@H]1C=C(CO)[C@@H](O)[C@H](O)[C@H]1O", "inactive"),
    ("C/C=C(/C(=C/C)c1ccc(OC(C)=O)cc1)c1ccc(OC(C)=O)cc1", "inactive"),
]

====

# assay explanation: p53 small molecule agonists, cell-based qHTS assay with human liver microsomes: qHTS cell viability counter screen (AID 1963579); further: on the % scale 0 is the no-effect control and ±100 the full control effect; nearly all actives have a fitted effect of over 45% in size
# experimental setup: p53RE-bla HCT-116 viability, ATP luminescence, 16 h, HLM; series mostly up to 66 µM
Records with an inconclusive call do not appear. Calls of active or inactive are those of the source. Calls come from the whole dose curve.
metric: activity change, negative = cytotoxicity

Recorded activity change, negative = cytotoxicity, per entry:
# compound, activity change, negative = cytotoxicity
records = [
    ("CC1CCC(C(C)CS)CC1S (configuration not stated)", "inactive"),
    ("CCN(CC)CCNc1ccc(CNC=O)c2sc3ccc(OC)cc3c(=O)c12", "inactive"),
    ("CC(C)(C)C1(CCc2ccc(Cl)cc2)CO1 (configuration not stated)", "inactive"),
    ("CCCCCCCC/C=C\\CCCCCCCCN", "inactive"),
    ("CCC1(C)NC(=O)NC1=O (configuration not stated)", "inactive"),
]

For every item below, please supply its activity change, negative = cytotoxicity.
1. C=CC/C=C/C
2. CC(C)c1cc(C(C)C)cc(C(C)C)c1
3. CNCc1ccccc1
4. CCCCCN(CCCOC)C(=O)C(CCC(=O)O)NC(=O)c1ccc(Cl)c(Cl)c1 (configuration not stated)
5. CCCCCN(CCCCC)C(=O)C(CCC(=O)O)NC(=O)c1ccc(Cl)c(Cl)c1 (configuration not stated)
6. CCCCOC(=O)/C=C\C(=O)OCCCC

**A:**
1. inactive
2. inactive
3. inactive
4. inactive
5. inactive
6. inactive

Form field activity change, negative = cytotoxicity, entry "Cc1cc(C(C)(C)C)c(O)c(C)c1Cn1c(=O)n(Cc2c(C)cc(C(C)(C)C)c(O)c2C)c(=O)n(Cc2c(C)cc(C(C)(C)C)c(O)c2C)c1=O" : inactive

====

# assay system: D(2) dopamine receptor (Homo sapiens) (UniProt P14416)
# assay explanation: Dopamine D2 receptor (DRD2) small molecule antagonists, cell-based qHTS assay (AID 1963595); further: on the % scale 0 is the no-effect control and ±100 the full control effect
# experimental setup: HEK293-DRD2 cAMP HTRF antagonist mode; series mostly up to 92.4 µM
Records with an inconclusive call do not appear. The source made the active and inactive calls. Calls come from the whole dose curve; as a rule, active = well fitted inhibition curve with a large enough effect in the signal ratio in the repeat runs, with a control signal flat; inconclusive = weak or mixed curves, or effect the other way; inactive = flat fitted curve, though single readings scatter; the % refers to the signal ratio.
metric: activity change, negative = inhibition

Study these solved cases before continuing.
# molecule, measured value
measured = [
    ("CC(=O)OCC(C)C", "inactive"),
    ("S=c1[nH][nH]c(=S)s1", "inactive"),
    ("CCCCCCCCCCCc1ccccc1", "inactive"),
    ("Cc1ccc2c(c1)C(=O)c1ccccc1C2=O", "inactive"),
    ("O=C(Nc1ccc(Cl)c(Cl)c1)C1CC1", "inactive"),
]

For each entry beneath this line, provide reported activity change, negative = inhibition.
1. O=C(Cn1ccnc1[N+](=O)[O-])NCCO
2. Cc1cc(CCCOc2c(C)cc(-c3noc(C(F)(F)F)n3)cc2C)on1
3. CCCCC/C=C/CC(=O)OC
4. C=CC(=O)O
5. Cc1ccco1
6. NC1CCN(c2cccc(Cl)n2)CC1

**A:**
1. inactive
2. inactive
3. inactive
4. inactive
5. inactive
6. inactive

====

# assay system: Beta-2 adrenergic receptor (Homo sapiens) (UniProt P07550)
# assay explanation: Adrenergic beta2 receptor (ADRB2) small molecule antagonists, cell-based qHTS assay (AID 1963592); further: on the % scale 0 is the no-effect control and ±100 the full control effect; nearly all actives have a fitted effect of over 50% in size
# experimental setup: CHO-ADRB2 cells, isoproterenol-stimulated cAMP HTRF ratio, 0.5 h; series mostly up to 92.4 µM
Records with an inconclusive call do not appear. Calls of active or inactive are those of the source. Calls follow the shape of the full dose curve.
metric: activity change, negative = inhibition

# line notation, activity change, negative = inhibition
rows = [
    ("CCC=CC#N", "inactive"),
    ("CN(CCOc1ccc(NS(C)(=O)=O)cc1)CCc1ccc(NS(C)(=O)=O)cc1", "inactive"),
    ("Cc1cccc(C(C)(C)C)c1O", "inactive"),
    ("CCN(CC)CCOC(=O)C1(c2ccccc2)CCCC1", "inactive"),
    ("O=C(Nc1ccc([N+](=O)[O-])cc1)Nc1ccc([N+](=O)[O-])cc1", "inactive"),
]

Each compound below has a recorded value; state its activity change, negative = inhibition.
1. O=[N+]([O-])c1ccc2[nH]ncc2c1
2. FC(F)(F)C(F)(F)C(F)(F)C(F)(F)C(F)(F)C(F)(F)C(F)(F)C(F)(F)C(F)(F)C(F)(F)F
3. CCCN(CCC)CCc1cccc2c1CC(=O)N2
4. O=C(NCCO[N+](=O)[O-])c1cccnc1
5. OCCN1C[C@H](O)[C@@H](O)[C@H](O)[C@H]1CO

**A:**
1: inactive; 2: 4.67% [at 8.39 µM] (inactive); 3: inactive; 4: inactive; 5: inactive

Look up activity change, negative = inhibition for the entries below, preserving their order.
1. CCN(CC)CCNC(=O)c1cc(S(C)(=O)=O)ccc1OC
2. FC(F)(F)C(F)(F)C(F)(F)C(F)(F)CCI

**A:**
1: inactive; 2: inactive
